Assay: self-splicing fitness, log relative to wild type (ln ratio); higher = more splicing; Tetrahymena group I intron in knt gene, E. coli kanamycin selection, DiMSum; sequences stand for … in CUCUCU…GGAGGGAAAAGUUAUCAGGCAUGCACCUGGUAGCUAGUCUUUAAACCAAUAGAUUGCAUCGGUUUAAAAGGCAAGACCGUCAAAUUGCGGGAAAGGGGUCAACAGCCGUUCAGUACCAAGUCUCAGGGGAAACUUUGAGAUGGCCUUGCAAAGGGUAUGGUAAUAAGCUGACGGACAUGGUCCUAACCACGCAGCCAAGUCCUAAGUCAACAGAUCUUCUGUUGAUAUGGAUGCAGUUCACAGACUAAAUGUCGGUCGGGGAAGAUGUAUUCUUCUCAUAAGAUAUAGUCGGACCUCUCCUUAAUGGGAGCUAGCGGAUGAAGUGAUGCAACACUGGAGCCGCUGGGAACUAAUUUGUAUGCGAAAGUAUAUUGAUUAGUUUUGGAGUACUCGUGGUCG;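 further: selection with 25 µg/mL kanamycin versus none on LB agar overnight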
Conditions: 37 °C
Outcome Measure: self-splicing fitness (ln)
Give the figure only, with no unit attached.

Given item "CUCUAGCAAUAUUACGCCGC" , the value recorded as its self-splicing fitness (ln) is -3.15

Given item "GUACAGCAAUAUUACGGCAU" , the value recorded as its self-splicing fitness (ln) is -0.278

Given item "CUUAAGCAAUAUUACGGACU" , the value recorded as its self-splicing fitness (ln) is -1.62

Given item "AAAUAGCAAUAUUACGGGCC" , the value recorded as its self-splicing fitness (ln) is -2.55

---

Test: self-splicing fitness, log relative to wild type (ln ratio); higher = more splicing; Tetrahymena group I intron in knt gene, E. coli kanamycin selection, DiMSum; sequences stand for … in CUCUCU…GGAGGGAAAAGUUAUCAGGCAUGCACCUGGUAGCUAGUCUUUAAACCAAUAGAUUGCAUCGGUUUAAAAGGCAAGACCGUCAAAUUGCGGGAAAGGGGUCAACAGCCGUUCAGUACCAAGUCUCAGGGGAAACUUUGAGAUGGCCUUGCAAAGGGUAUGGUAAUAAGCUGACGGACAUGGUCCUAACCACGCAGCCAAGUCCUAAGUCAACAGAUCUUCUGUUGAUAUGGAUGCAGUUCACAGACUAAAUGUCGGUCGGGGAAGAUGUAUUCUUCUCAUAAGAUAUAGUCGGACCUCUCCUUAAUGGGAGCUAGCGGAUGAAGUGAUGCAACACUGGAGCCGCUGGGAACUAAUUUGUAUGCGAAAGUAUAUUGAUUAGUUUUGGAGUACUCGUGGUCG
Settings: 30 °C
Outcome Measure: self-splicing fitness (ln)
Give the figure only, with no unit attached.

Given item "UGGAAGCAAUAUUACGUCCA" , the value recorded as its self-splicing fitness (ln) is -2.02

Given item "AAUGAGCAAUAUUACGGUUG" , the value recorded as its self-splicing fitness (ln) is -2.99

Given item "GCGUAGCAAUAUUACGACUG" , the value recorded as its self-splicing fitness (ln) is -1.54

Given item "CCGCAGCAAUAUUACGAUUA" , the value recorded as its self-splicing fitness (ln) is -3.03

Given item "CUCAAGCAAUAUUACGACGU" , the value recorded as its self-splicing fitness (ln) is -2.18

Given item "GUGUAGCAAUAUUACGAGAC" , the value recorded as its self-splicing fitness (ln) is -3.58

Given item "UGCCAGCAAUAUUACGAGAG" , the value recorded as its self-splicing fitness (ln) is -4.28

Given item "CUAUAGCAAUAUUACGCUGU" , the value recorded as its self-splicing fitness (ln) is -3.72

Given item "GAGAAGCAAUAUUACGGAUG" , the value recorded as its self-splicing fitness (ln) is -2.5

Given item "GAAUAGCAAUAUUACGCGUU" , the value recorded as its self-splicing fitness (ln) is -3.4

Given item "AAGAAGCAAUAUUACGUUCA" , the value recorded as its self-splicing fitness (ln) is -0.746

Given item "GGUCAGCAAUAUUACGCGGA" , the value recorded as its self-splicing fitness (ln) is -2.04

Given item "CUUCAGCAAUAUUACGGUCU" , the value recorded as its self-splicing fitness (ln) is -2.93

Given item "GGUUAGCAAUAUUACGCGAC" , the value recorded as its self-splicing fitness (ln) is -2.02

Given item "ACCUAGCAAUAUUACGCUAG" , the value recorded as its self-splicing fitness (ln) is -3.86

Given item "GCCUAGCAAUAUUACGUAGU" , the value recorded as its self-splicing fitness (ln) is -0.126

Given item "ACUGAGCAAUAUUACGGUGA" , the value recorded as its self-splicing fitness (ln) is -2.02

Given item "CCCAAGCAAUAUUACGAGUA" , the value recorded as its self-splicing fitness (ln) is -4.12

Given item "UUAAAGCAAUAUUACGGCUA" , the value recorded as its self-splicing fitness (ln) is 0.185

Given item "GAAUAGCAAUAUUACGUUAA" , the value recorded as its self-splicing fitness (ln) is -2.56

Given item "UUGAAGCAAUAUUACGUGAA" , the value recorded as its self-splicing fitness (ln) is -1.92

Given item "GGUUAGCAAUAUUACGCUCA" , the value recorded as its self-splicing fitness (ln) is -1.34

Given item "UGUUAGCAAUAUUACGUGCG" , the value recorded as its self-splicing fitness (ln) is -1.23

Given item "UUACAGCAAUAUUACGACGU" , the value recorded as its self-splicing fitness (ln) is -3.61

Given item "AGCUAGCAAUAUUACGAAUA" , the value recorded as its self-splicing fitness (ln) is -3.3

Given item "UUGUAGCAAUAUUACGAAUG" , the value recorded as its self-splicing fitness (ln) is -3.32

Given item "AUGAAGCAAUAUUACGAAGA" , the value recorded as its self-splicing fitness (ln) is -1.9

Given item "GACGAGCAAUAUUACGGAUC" , the value recorded as its self-splicing fitness (ln) is -2.68

Given item "CCCCAGCAAUAUUACGCGAU" , the value recorded as its self-splicing fitness (ln) is -4.32

Given item "ACGUAGCAAUAUUACGAAAC" , the value recorded as its self-splicing fitness (ln) is -2.02

Given item "UUCGAGCAAUAUUACGAUGU" , the value recorded as its self-splicing fitness (ln) is -3.71

Given item "GUGCAGCAAUAUUACGUGGC" , the value recorded as its self-splicing fitness (ln) is -3.55

Given item "GGAGAGCAAUAUUACGGGAC" , the value recorded as its self-splicing fitness (ln) is -2.46

Given item "CACAAGCAAUAUUACGACAA" , the value recorded as its self-splicing fitness (ln) is -3.12

Given item "GAGCAGCAAUAUUACGAGCC" , the value recorded as its self-splicing fitness (ln) is -0.545

Given item "UAGUAGCAAUAUUACGACUA" , the value recorded as its self-splicing fitness (ln) is -0.0384

Given item "AUGAAGCAAUAUUACGAGAA" , the value recorded as its self-splicing fitness (ln) is -3.53

Given item "GGCAAGCAAUAUUACGGUUU" , the value recorded as its self-splicing fitness (ln) is -0.376

Given item "GAUUAGCAAUAUUACGCUGG" , the value recorded as its self-splicing fitness (ln) is -1.73

Given item "GUGAAGCAAUAUUACGCCAA" , the value recorded as its self-splicing fitness (ln) is -0.702

Given item "UUUGAGCAAUAUUACGCCCU" , the value recorded as its self-splicing fitness (ln) is -1.25

Given item "GGACAGCAAUAUUACGCACU" , the value recorded as its self-splicing fitness (ln) is -1.12

Given item "GACAAGCAAUAUUACGAGCA" , the value recorded as its self-splicing fitness (ln) is -1.12

Given item "UGUUAGCAAUAUUACGUGUU" , the value recorded as its self-splicing fitness (ln) is -3.3

Given item "UAUUAGCAAUAUUACGACAG" , the value recorded as its self-splicing fitness (ln) is -1.58

Given item "UGAGAGCAAUAUUACGAUGU" , the value recorded as its self-splicing fitness (ln) is -3.27

Given item "UUGUAGCAAUAUUACGGAUC" , the value recorded as its self-splicing fitness (ln) is -3.53

Given item "UACAAGCAAUAUUACGCGUG" , the value recorded as its self-splicing fitness (ln) is -2.09

Given item "ACUCAGCAAUAUUACGGAUG" , the value recorded as its self-splicing fitness (ln) is -1.36

Given item "UUUAAGCAAUAUUACGAAUC" , the value recorded as its self-splicing fitness (ln) is -2.96

Given item "ACACAGCAAUAUUACGCCCC" , the value recorded as its self-splicing fitness (ln) is -1.66

Given item "GCGCAGCAAUAUUACGACCA" , the value recorded as its self-splicing fitness (ln) is -1.56

Given item "GAUUAGCAAUAUUACGCAAA" , the value recorded as its self-splicing fitness (ln) is -2.19

Given item "GAUCAGCAAUAUUACGUAGA" , the value recorded as its self-splicing fitness (ln) is -0.569

Given item "CCUUAGCAAUAUUACGGGAU" , the value recorded as its self-splicing fitness (ln) is -3.68

Given item "GAAGAGCAAUAUUACGCACA" , the value recorded as its self-splicing fitness (ln) is -1.91

Given item "CUUGAGCAAUAUUACGGUGC" , the value recorded as its self-splicing fitness (ln) is -3.34

Given item "AACUAGCAAUAUUACGUCCC" , the value recorded as its self-splicing fitness (ln) is -0.0622

Given item "CGAUAGCAAUAUUACGACCC" , the value recorded as its self-splicing fitness (ln) is -2.33

Given item "CUACAGCAAUAUUACGGGAA" , the value recorded as its self-splicing fitness (ln) is -2.88

Given item "GCCAAGCAAUAUUACGUUGA" , the value recorded as its self-splicing fitness (ln) is -2.53

Given item "AGACAGCAAUAUUACGUUCA" , the value recorded as its self-splicing fitness (ln) is -0.336

Given item "UGGUAGCAAUAUUACGGCGU" , the value recorded as its self-splicing fitness (ln) is -1.44

Given item "GAGCAGCAAUAUUACGGCGU" , the value recorded as its self-splicing fitness (ln) is -0.163
